Cited source for all entries: the supplement of paper PMC8253809

# Test system: DIPGX29 (H3.3 K27M diffuse intrinsic pontine glioma line)
# ASSAY: growth inhibition (% activity, log2 RLU normalised to DMSO / staurosporine); higher = more growth inhibition
# APPLIED_CONDITIONS: 33 µM
RECORDED_ENDPOINT: growth inhibition

Short answer on DIPGX29 for CCn1cc(C(=O)O)c(=O)c2cc(F)c(N3CCNCC3)nc21 , growth inhibition: -0.406%

Short answer on DIPGX29 for CC(=O)O[C@H]1CC[C@@]2(C)C(=CC[C@@H]3[C@@H]2CC[C@]2(C)C(c4cccnc4)=CC[C@@H]32)C1 , growth inhibition: 0.369%

Short answer on DIPGX29 for C[C@H]1c2cccc(O)c2C(=O)C2=C(O)[C@]3(O)C(=O)C(C(N)=O)=C(O)[C@@H](N(C)C)[C@@H]3[C@@H](O)[C@@H]21 , growth inhibition: 0.731%

---

# System: SUDIPGVI (diffuse intrinsic pontine glioma line)
# ASSAY: growth inhibition (% activity, log2 RLU normalised to DMSO / staurosporine); higher = more growth inhibition
# APPLIED_CONDITIONS: 33 µM
RECORDED_ENDPOINT: growth inhibition
Put down the number, then write its unit next to it.

Just so you know, measured growth inhibition for Cn1cnc([N+](=O)[O-])c1Sc1ncnc2[nH]cnc12 came out at 8.24%

Just so you know, measured growth inhibition for CS(=O)(=O)c1ccc(C(=O)Nc2ccc(Cl)c(-c3ccccn3)c2)c(Cl)c1 came out at 4.38%

Just so you know, measured growth inhibition for CN(C)CCN(Cc1cccs1)c1ccccn1 came out at 3.63%

Just so you know, measured growth inhibition for CN(CCOc1ccc(NS(C)(=O)=O)cc1)CCc1ccc(NS(C)(=O)=O)cc1 came out at -13.8%

Just so you know, measured growth inhibition for O=C1CCc2ccc(OCCCCN3CCN(c4cccc(Cl)c4Cl)CC3)cc2N1 came out at 4.51%

Just so you know, measured growth inhibition for Cc1cc(=O)[nH]c(=S)[nH]1 came out at 4.36%

Just so you know, measured growth inhibition for CCCCCCCCCCC[C@@H](C[C@@H]1OC(=O)[C@H]1CCCCCC)OC(=O)[C@H](CC(C)C)NC=O came out at -3.34%

Just so you know, measured growth inhibition for CN(C)CCCN1c2ccccc2Sc2ccc(Cl)cc21 came out at -5.1%

Just so you know, measured growth inhibition for COc1ccc(CNc2nc(N3CCC[C@H]3CO)ncc2C(=O)NCc2ncccn2)cc1Cl came out at -2.1%

Just so you know, measured growth inhibition for CCC(=O)O[C@]1(C(=O)SCF)[C@H](C)C[C@H]2[C@@H]3C[C@H](F)C4=CC(=O)C=C[C@]4(C)[C@@]3(F)[C@@H](O)C[C@@]21C came out at -0.462%

Just so you know, measured growth inhibition for NC(=O)N/N=C/c1ccc([N+](=O)[O-])o1 came out at 1.04%

Just so you know, measured growth inhibition for CC(C)C[C@H](NC(=O)[C@H](O)[C@H](N)Cc1ccccc1)C(=O)O came out at 0.754%

Just so you know, measured growth inhibition for COC(=O)N/N=C/c1c[n+]([O-])c2ccccc2[n+]1[O-] came out at 5.18%

Just so you know, measured growth inhibition for Oc1cc(O)c(Cl)cn1 came out at -1.42%

Just so you know, measured growth inhibition for CCN(CC)CCNC(C(=O)OCCC(C)C)c1ccccc1 (configuration not stated) came out at -6.42%

Just so you know, measured growth inhibition for CO/N=C(\C(=O)N[C@@H]1C(=O)N2C(C(=O)O)=C(Cn3ccc(=N)n3CCO)CS[C@H]12)c1csc(N)n1 came out at 0.0229%

Just so you know, measured growth inhibition for CCC(C)(C)C(=O)O[C@H]1C[C@@H](C)C=C2C=C[C@H](C)[C@H](CC[C@@H]3C[C@@H](O)CC(=O)O3)[C@H]21 came out at -11.4%

Just so you know, measured growth inhibition for Cc1cn([C@@H]2C[C@@H](O)[C@H](CO)O2)c(=O)[nH]c1=O came out at -10.2%

Just so you know, measured growth inhibition for CNC(=C[N+](=O)[O-])NCCSCc1csc(CN(C)C)n1 came out at 0.207%

Just so you know, measured growth inhibition for CN(C)CC/C=C1/c2ccccc2Sc2ccc(Cl)cc21 came out at -0.358%

Just so you know, measured growth inhibition for CN1CCC(=C2c3ccccc3CC(=O)c3sccc32)CC1 came out at 0.438%

Just so you know, measured growth inhibition for COC(=O)[C@H](c1ccccc1Cl)N1CCc2sccc2C1 came out at 0.653%

Just so you know, measured growth inhibition for COc1cnc(NS(=O)(=O)c2ccc(N)cc2)nc1 came out at 0.403%

Just so you know, measured growth inhibition for CC(=O)O[C@]1(C(C)=O)CC[C@H]2[C@@H]3C[C@H](C)C4=CC(=O)CC[C@]4(C)[C@H]3CC[C@@]21C came out at -6.53%

Just so you know, measured growth inhibition for CC(=O)O[C@H]1C(=O)[C@@]2(C)[C@H]([C@H](OC(=O)c3ccccc3)[C@]3(O)C[C@H](OC(=O)[C@H](O)[C@@H](NC(=O)c4ccccc4)c4ccccc4)C(C)=C1C3(C)C)[C@]1(OC(C)=O)CO[C@@H]1C[C@@H]2O came out at 6.74%

Just so you know, measured growth inhibition for Nc1nc(N)c2nc(-c3ccccc3)c(N)nc2n1 came out at 5.65%

Just so you know, measured growth inhibition for COc1cc2c(cc1O)CC[C@@H]1[C@@H]2CC[C@]2(C)[C@@H](O)CC[C@@H]12 came out at -1.23%
